- assay-overview: Cynomolgus monkeys: body and organ weights (Example 29)
- Format: in vivo
- run-parameters: escalating doses 5, 10, 25 mg/kg s.c., day 15
In the oligonucleotide strings, read from the 5' end, every base follows the letter of its sugar. An asterisk marks phosphorothioate; unmarked linkages are phosphodiester. Other units and linkages are bracketed, terminal groups are in braces. A string of capitals states the bases alone. e = 2'-O-(2-methoxyethyl) (MOE); [5mC] = 5-methylcytosine; d = 2'-deoxy (DNA)
endpoint-name: Body weight (g)
Answer format: numeric, g implied, no suffix.

Here is how some substances turned out for Body weight.
ISIS 416864: gapmer of Table 8 (antisense eG*eG*e[5mC]*eA*eG*d[5mC]*dG*dG*dA*d[5mC]*dG*dG*d[5mC]*dA*dT*eT*eG*eG*eT*eG)
2817
ISIS 417002: gapmer of Table 8 (antisense eG*eG*dT*dG*d[5mC]*dA*d[5mC]*dA*dG*dT*dT*dT*d[5mC]*dT*dG*eG*e[5mC]*eA*eG*eG)
2571
ISIS 416858: gapmer of Table 8 (antisense eA*e[5mC]*eG*eG*e[5mC]*dA*dT*dT*dG*dG*dT*dG*d[5mC]*dA*d[5mC]*eA*eG*eT*eT*eT)
2760

Quick one: Body weight of ISIS 416850: gapmer of Table 8 (antisense eT*eG*e[5mC]*eA*e[5mC]*dA*dG*dT*dT*dT*d[5mC]*dT*dG*dG*d[5mC]*eA*eG*eG*e[5mC]*e[5mC]) ?
2474

How about ISIS 416838: gapmer of Table 6 (antisense eG*e[5mC]*eA*eA*e[5mC]*d[5mC]*dG*dG*dG*dA*dT*dG*dA*dT*dG*eA*eG*eT*eG*e[5mC]) ?
2642

----------
- Test system: human Factor XI mRNA
- assay-overview: Dose-dependent inhibition in HepG2 cells, electroporation (Example 4)
- Assay type: cell-based
- run-parameters: 20 μM, 16 hours
In the oligonucleotide strings, read from the 5' end, every base follows the letter of its sugar. An asterisk marks phosphorothioate; unmarked linkages are phosphodiester. Other units and linkages are bracketed, terminal groups are in braces. A string of capitals states the bases alone. e = 2'-O-(2-methoxyethyl) (MOE); [5mC] = 5-methylcytosine; d = 2'-deoxy (DNA)
endpoint-name: percent inhibition of Factor XI mRNA, relative to untreated control cells (%)
Answer format: numeric, % implied, no suffix.

Here is how some substances turned out for percent inhibition of Factor XI mRNA, relative to untreated control cells.
416827 (antisense eT*eA*eT*eG*e[5mC]*d[5mC]*d[5mC]*dT*dT*d[5mC]*dA*dT*dG*dT*d[5mC]*eT*eA*eG*eG*eT) [compound 416827]
92
416826 (antisense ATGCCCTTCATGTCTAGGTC; 5-10-5 gapmer, wing sugar chemistry not given here, further chemistry not given here) [compound 416826]
82

Quick one: percent inhibition of Factor XI mRNA, relative to untreated control cells of 416945 (antisense eA*eA*dT*dG*dT*d[5mC]*dT*dT*dT*dG*dT*dT*dG*d[5mC]*dA*eA*eG*e[5mC]*eG*e[5mC]) [compound 416945] ?
88

How about 416993 (antisense e[5mC]*eT*dT*dT*dG*dA*dG*dA*dT*dT*d[5mC]*dT*dT*dT*dG*eG*eG*e[5mC]*e[5mC]*eA) [compound 416993] ?
92

How about 416864 (antisense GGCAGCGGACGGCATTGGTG; 5-10-5 gapmer, wing sugar chemistry not given here, further chemistry not given here) [compound 416864] ?
90

How about 416856 (antisense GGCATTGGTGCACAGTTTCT; 5-10-5 gapmer, wing sugar chemistry not given here, further chemistry not given here) [compound 416856] ?
93

----------
- System: Factor XI mRNA
- assay-overview: Cynomolgus monkeys, 25 mg/kg: liver Factor XI RNA analysis (Example 30)
- Assay type: in vivo
- run-parameters: 25 mg/kg s.c.; day 55; liver
In the oligonucleotide strings, read from the 5' end, every base follows the letter of its sugar. An asterisk marks phosphorothioate; unmarked linkages are phosphodiester. Other units and linkages are bracketed, terminal groups are in braces. A string of capitals states the bases alone. e = 2'-O-(2-methoxyethyl) (MOE); [5mC] = 5-methylcytosine; d = 2'-deoxy (DNA)
In this section, each of the substances is paired with its reported % inhibition of Factor XI mRNA in liver relative to the PBS control.
Answer format: numeric, % implied, no suffix.

Here is how some substances turned out for % inhibition of Factor XI mRNA in liver relative to the PBS control.
445522 (antisense eG*e[5mC]*eA*e[5mC]*eA*dG*dT*dT*dT*d[5mC]*dT*dG*dG*e[5mC]*eA*eG*eG*e[5mC]) [compound 445522]
89
449707 (antisense e[5mC]*eA*e[5mC]*eA*dG*dT*dT*dT*d[5mC]*dT*dG*dG*e[5mC]*eA*eG*eG) [compound 449707]
47
449708 (antisense eA*e[5mC]*eA*dG*dT*dT*dT*d[5mC]*dT*dG*dG*e[5mC]*eA*eG) [compound 449708]
46

We now examine a further substance.
Quick one: % inhibition of Factor XI mRNA in liver relative to the PBS control of 449711 (antisense eA*e[5mC]*dA*dG*dT*dT*dT*d[5mC]*dT*dG*dG*d[5mC]*eA*eG) [compound 449711] ?
0

----------
- System: human Factor XI mRNA
- assay-overview: Dose-dependent inhibition and IC50 in HepG2 cells, microwalk gapmers, electroporation (Example 16)
- Format: cell-based
- run-parameters: electroporation, 12,000 nM
In the oligonucleotide strings, read from the 5' end, every base follows the letter of its sugar. An asterisk marks phosphorothioate; unmarked linkages are phosphodiester. Other units and linkages are bracketed, terminal groups are in braces. A string of capitals states the bases alone. e = 2'-O-(2-methoxyethyl) (MOE); [5mC] = 5-methylcytosine; d = 2'-deoxy (DNA)
In this section, each of the substances is paired with its reported percent inhibition of Factor XI mRNA.
Answer format: numeric, % implied, no suffix.

Quick one: percent inhibition of Factor XI mRNA of 449711 (antisense eA*e[5mC]*dA*dG*dT*dT*dT*d[5mC]*dT*dG*dG*d[5mC]*eA*eG) [compound 449711] ?
52

How about 449708 (antisense eA*e[5mC]*eA*dG*dT*dT*dT*d[5mC]*dT*dG*dG*e[5mC]*eA*eG) [compound 449708] ?
85

How about 449707 (antisense e[5mC]*eA*e[5mC]*eA*dG*dT*dT*dT*d[5mC]*dT*dG*dG*e[5mC]*eA*eG*eG) [compound 449707] ?
91

How about 416858 (antisense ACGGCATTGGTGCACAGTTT; 5-10-5 gapmer, wing sugar chemistry not given here, further chemistry not given here) [compound 416858] ?
93

How about 449710 (antisense e[5mC]*eA*e[5mC]*dA*dG*dT*dT*dT*d[5mC]*dT*dG*dG*d[5mC]*eA*eG*eG) [compound 449710] ?
87

How about 416850 (antisense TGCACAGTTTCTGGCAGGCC; 5-10-5 gapmer, wing sugar chemistry not given here, further chemistry not given here) [compound 416850] ?
95

How about 449709 (antisense eG*e[5mC]*eA*e[5mC]*dA*dG*dT*dT*dT*d[5mC]*dT*dG*dG*d[5mC]*eA*eG*eG*e[5mC]) [compound 449709] ?
95

How about 445522 (antisense eG*e[5mC]*eA*e[5mC]*eA*dG*dT*dT*dT*d[5mC]*dT*dG*dG*e[5mC]*eA*eG*eG*e[5mC]) [compound 445522] ?
92

How about 445531 (antisense eG*eG*e[5mC]*eA*eT*dT*dG*dG*dT*dG*d[5mC]*dA*d[5mC]*eA*eG*eT*eT*eT) [compound 445531] ?
93

----------
In this section, each of the sequences is paired with its reported Albumin.
- assay-overview: Tolerability in Sprague-Dawley rats: liver function (Example 23)
- Type: in vivo
- Set-up: unit not given here
- run-parameters: plasma, 50 mg/kg s.c. twice per week for 6 weeks
Please reply with the value in numeric form only.

Here is how some sequences turned out for Albumin.
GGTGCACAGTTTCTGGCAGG (all C 5-methyl, all phosphorothioate, sugars by position not given here; MOE gapmer) [ISIS 413481, 5-10-5 MOE gapmer]
4
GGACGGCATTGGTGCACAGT (antisense; all C 5-methyl, all phosphorothioate, sugars by position not given here; MOE gapmer, 5-10-5) [ISIS 413482, 5-10-5 MOE gapmer]
4
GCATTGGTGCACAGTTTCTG (antisense; all C 5-methyl, all phosphorothioate, sugars by position not given here; MOE gapmer, 5-10-5) [ISIS 412224, 5-10-5 MOE gapmer]
4
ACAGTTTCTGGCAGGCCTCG (antisense; all C 5-methyl, all phosphorothioate, sugars by position not given here; MOE gapmer, 5-10-5) [ISIS 412223, 5-10-5 MOE gapmer]
5

We now examine a further sequence.
Quick one: Albumin of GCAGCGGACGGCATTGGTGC (antisense; all C 5-methyl, all phosphorothioate, sugars by position not given here; MOE gapmer, 5-10-5) [ISIS 412225, 5-10-5 MOE gapmer] ?
5
